Please respond with reported IC50 for every item in the list.

Hello, I am looking for reported IC50 with Fatty-acid amide hydrolase 1 (Rattus norvegicus) for `CC(C)N1CCN(C(=O)Oc2cccc(C#N)c2)CC1` . Could you help?
68 nM

Hello, I am looking for reported IC50 with Fatty-acid amide hydrolase 1 (Rattus norvegicus) for N#Cc1cccc(OC(=O)N2CCN(C(c3ccccc3)c3cccnc3)CC2)c1 (stereo not given) . Could you help?
> 1000 nM

Hello, I am looking for reported IC50 with Fatty-acid amide hydrolase 1 (Rattus norvegicus) for `N#Cc1cccc(OC(=O)N2CCC(C(c3ccccc3)c3ccccc3)CC2)c1` . Could you help?
> 1000 nM

Hello, I am looking for reported IC50 with Fatty-acid amide hydrolase 1 (Rattus norvegicus) for `N#Cc1cc(F)cc(OC(=O)N2CCC(C(c3ccccc3)c3ccccc3)CC2)c1` . Could you help?
> 1000 nM

Hello, I am looking for reported IC50 with Fatty-acid amide hydrolase 1 (Rattus norvegicus) for `N#Cc1cccc(OC(=O)N2CCN(C3c4ccccc4-c4ccccc43)CC2)c1` . Could you help?
> 1000 nM
